Assignment: determine reported composite z-score for the given molecules.
Tested on: Neuregulin-1 EGF-like domain
Test: binders of neuregulin-1 EGF-like domain, primary screen, biochemical, small-molecule microarray, 635 nm fluorescence (AID 1081);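 further: binding of the protein to compounds printed on small-molecule microarray slides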
Settings: small-molecule microarray binding, higher = more signal
Lab note: record the figure alone, no unit after it.

Asked: Recorded composite z-score for CC(C)=CCCC(C)=CCON=C1C[C@@H](O)[C@@H](O)[C@@H]2[C@@H]3C(=O)N(C[C@@H]4CCCO4)C(=O)[C@@H]3CC[C@H]12 , please?
Given back: 1.05

Asked: Repeat for the following molecule: CC(C)=CCCC(C)=CCON=C1C[C@@H](O)[C@@H](O)[C@@H]2[C@@H]3C(=O)N(c4ccc(F)cc4F)C(=O)[C@@H]3CC[C@@H]12
Given back: 0.314

Asked: Repeat for the following molecule: Cc1ccc(S(=O)(=O)NC(CCc2ccccc2)CC(=O)C(C)(C)C)cc1 (centres undefined)
Given back: 0.459

Asked: Repeat for the following molecule: CC(C)=NOC[C@@H](C)[C@H](OCc1ccccc1)C(C)C
Given back: -0.372

Asked: Repeat for the following molecule: CCc1cc2c(nc1CC)CCN(CCC(C)=NO[C@H](C)c1cn([C@H](CO)Cc3ccccc3)nn1)C2
Given back: 0.595

Asked: Repeat for the following molecule: CCOC(=O)[C@H](CC(C)C)NC(=O)CCC1CC(OC(=O)NCc2cccc3ccccc23)CC2(CCCC(COC(=O)NCCOC)O2)O1 (some centres undefined)
Given back: 0.931

Asked: Repeat for the following molecule: CCOC(=O)[C@H](Cc1ccccc1)NC(=O)CCC1CC(OC(=O)NCc2ccc3c(c2)OCO3)CC2(CCCC(COC(=O)NCCc3ccccc3OC)O2)O1 (some centres undefined)
Given back: 1.1

Asked: Repeat for the following molecule: C=CC[C@@H]1C=C[C@H](ON=C[C@@H](C)[C@H](OCc2ccccc2)C(C)C)[C@@H](CO)O1
Given back: -0.255

Asked: Repeat for the following molecule: CCc1cc2c(nc1CC)CCN(CCC(C)=NOC[C@H]1O[C@H](c3ccccc3)C=C[C@@H]1Oc1ccc(OC)cc1)C2
Given back: 0.734

Asked: Repeat for the following molecule: CCOC(=O)[C@H](CC(C)C)NC(=O)CCC1CC(OC(=O)NCc2cccc3ccccc23)CC2(CCCC(COC(=O)NCc3cccc(C(F)(F)F)c3)O2)O1 (some centres undefined)
Given back: 0.0188

Asked: Repeat for the following molecule: CC(C)C[C@H](NC(=O)CCC1CC(OC(=O)NCc2cccc3ccccc23)CC2(CCCC(COC(=O)NCc3ccccc3)O2)O1)C(=O)NCC(c1ccccc1)c1ccccc1 (some centres undefined)
Given back: 1.2

Asked: Repeat for the following molecule: COC(=O)[C@@H]1CC[C@H](C)[C@@H](c2ccc(C)cc2)N1C(=O)c1ccc(C=NO[C@H](C)c2cn([C@@H]3COC[C@H]3O)nn2)cc1
Given back: 0.972

Asked: Repeat for the following molecule: C[C@@H](c1ccccc1)N1C(=O)[C@H]2[C@H]3[C@H](O)[C@H](O)CC(=NO[C@@H]4O[C@H](CO)[C@@H](O)[C@H](O)[C@H]4O)[C@H]3CC[C@H]2C1=O
Given back: 0.343

Asked: Repeat for the following molecule: O=C(C=Cc1ccc2c(c1)OCO2)c1ccc(F)cc1
Given back: -0.0248

Asked: Repeat for the following molecule: C[C@@H](c1ccccc1)N1C(=O)[C@H]2[C@H]3[C@H](O)[C@H](O)CC(=NOCc4ccccc4)[C@H]3CC[C@H]2C1=O
Given back: 1.22

Asked: Repeat for the following molecule: CCOC(=O)[C@H](CC(C)C)NC(=O)CCC1CC(OC(=O)NCc2ccc3c(c2)OCO3)CC2(CCCC(COC(=O)NCCCN3CCCC3=O)O2)O1 (some centres undefined)
Given back: 0.984

Asked: Repeat for the following molecule: CC(C)CON=C1C[C@@H](O)[C@@H](O)[C@@H]2[C@@H]3C(=O)N(c4ccc(F)cc4F)C(=O)[C@@H]3CC[C@H]12
Given back: 1.23

Asked: Repeat for the following molecule: COc1ccc(O[C@H]2C=C[C@@H](c3ccccc3)O[C@@H]2CON=C2[C@H]3CCn4c(=O)n(-c5ccccc5)c(=O)n4[C@H]3[C@H](O)[C@@H]3O[C@H]23)cc1
Given back: 0.63

Asked: Repeat for the following molecule: CC(=O)OC[C@H]1O[C@H](CC=NO[C@H](C)c2cn([C@H](CO)Cc3ccccc3)nn2)C=C[C@@H]1OC(C)=O
Given back: 0.711

Asked: Repeat for the following molecule: COc1cccc([C@H]2Oc3ccc(OC)cc3C(=NO[C@H](C)c3cn([C@H](CO)Cc4ccccc4)nn3)[C@@H]2O)c1
Given back: -0.504

Asked: Repeat for the following molecule: CCCCC#C[C@@H]1C=C[C@H](OC(C)=O)[C@@H](COC(C)=O)O1
Given back: 0.0329

Asked: Repeat for the following molecule: CCOC(=O)NN=C1C[C@@H](O)[C@@H](O)[C@@H]2[C@@H]3C(=O)N(Cc4ccccc4)C(=O)[C@@H]3CC[C@H]12
Given back: -0.699

Asked: Repeat for the following molecule: COc1ccc(O[C@H]2C=C[C@@H](c3ccccc3)O[C@@H]2CON=C(C)CCN2CCc3nc(-c4ccccc4)c(-c4ccccc4)cc3C2)cc1
Given back: -0.0088

Asked: Repeat for the following molecule: COC(=O)CC=C[C@@H](C)[C@@H](C=NO[C@@H](C)c1cn([C@H](CO)Cc2ccccc2)nn1)NS(=O)(=O)c1ccc(C)cc1
Given back: 0.75

Asked: Repeat for the following molecule: COC(=O)[C@H](C)NC(=O)CCC1CC(OC(=O)NCc2ccc3c(c2)OCO3)CC2(CCCC(COC(=O)NCCc3ccccc3OC)O2)O1 (some centres undefined)
Given back: 0.751

Asked: Repeat for the following molecule: C[C@H](ON=C1[C@H]2CCn3c(=O)n(-c4ccccc4)c(=O)n3[C@H]2[C@H](O)[C@@H]2O[C@H]12)c1cn([C@H](CO)Cc2ccccc2)nn1
Given back: 0.764

Asked: Repeat for the following molecule: O=C1[C@H]2[C@H]3[C@H](O)[C@H](O)CC(=NO[C@@H]4O[C@H](CO)[C@@H](O)[C@H](O)[C@H]4O)[C@H]3CC[C@H]2C(=O)N1c1cccc(Oc2ccccc2)c1
Given back: 0.843

Asked: Repeat for the following molecule: C=Cc1ccc([C@H]2N[C@H](C(=O)O)CC[C@@H]2C)cc1
Given back: 0.564

Asked: Repeat for the following molecule: COCOc1ccc(Br)cc1C(=O)[C@@H]1O[C@H]1c1cccc(OC)c1
Given back: 0.287

These measurements were taken from PubChem BioAssay.
